Target: cathepsin G (Cath G) (Homo sapiens)
Construct: purchased Athens Research and Technology, Athens, Ga
Sequence (P08311 21-244 limits assumed): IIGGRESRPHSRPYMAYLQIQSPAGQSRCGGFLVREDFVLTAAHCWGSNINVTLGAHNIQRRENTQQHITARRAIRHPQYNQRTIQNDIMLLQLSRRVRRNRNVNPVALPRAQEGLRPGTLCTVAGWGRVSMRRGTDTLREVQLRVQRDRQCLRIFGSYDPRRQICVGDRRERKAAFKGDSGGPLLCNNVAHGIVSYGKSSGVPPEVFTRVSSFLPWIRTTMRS
Test: Inactivation of human leukocyte cathepsin G (kobs/[I])
Assay type: biochemical
Conditions: pH 7.5; Table 4
Overview of reported kinact/KI across a group of molecules:
endpoint: kinact/KI (M⁻¹ s⁻¹)

[
  {
    "molecule": "O=C(/C=C/Sc1ccccc1)OCN1C(=O)C(Cc2ccccc2)CS1(=O)=O (centres unmarked)",
    "observed": 5520
  },
  {
    "molecule": "O=C(C[S+]([O-])c1ccccc1)OCN1C(=O)C(Cc2ccccc2)CS1(=O)=O (centres unmarked)",
    "observed": 770
  },
  {
    "molecule": "O=C(CSc1ccccc1)OCN1C(=O)C(Cc2ccccc2)CS1(=O)=O (centres unmarked)",
    "observed": 3340
  },
  {
    "molecule": "O=C(/C=C/c1ccccc1)OCN1C(=O)C(Cc2ccccc2)CS1(=O)=O (centres unmarked)",
    "observed": 3220
  },
  {
    "molecule": "O=C(CS(=O)(=O)c1ccccc1)OCN1C(=O)C(Cc2ccccc2)CS1(=O)=O (centres unmarked)",
    "observed": 1050
  },
  {
    "molecule": "O=C(C=CS(=O)(=O)c1ccccc1)OCN1C(=O)C(Cc2ccccc2)CS1(=O)=O (centres unmarked)",
    "observed": 2770
  },
  {
    "molecule": "O=C(/C=C\\Sc1ccccc1)OCN1C(=O)C(Cc2ccccc2)CS1(=O)=O (centres unmarked)",
    "observed": 7270
  },
  {
    "molecule": "O=C(CCc1ccccc1)OCN1C(=O)C(Cc2ccccc2)CS1(=O)=O (centres unmarked)",
    "observed": 640
  }
]
